Attribution: paper PMC8538057

# test_protocol: Disposition and nasal absorption of ANA-TA9 in rats (plasma pharmacokinetics after i.v. bolus, i.v. infusion and i.n. administration)
# Assay type: in vivo, Male Wistar/ST rats
# run_conditions: male, Wistar/ST, rat, in vivo, iv, 2 mg
# Experimental: For i.n. administration, ANA-TA9 was dissolved in PBS at a concentration of 100 mg/mL. For intravenous (i.v.) administration, the nasal solution was diluted to 10 mg/mL with PBS. […] The plasma and brain concentrations of ANA-TA9 were determined by LC/MS, LC-20A, and LCMS-2020 (SHIMADZU, Kyoto, Japan). […] ANA-TA9 eluting from the column was detected with mass spectrometry under the positive mode. […] The calibration curves of ANA-TA9 in the plasma and the brain were determined. […]
Ends that are not written are not given here.

| residue_sequence | level at 0.5 min, ng/mL |
| --- | --- |
| SKGQAYRMI [ANA-TA9] | 575 |
